- System: Saccharomyces cerevisiae
- test.name: transcriptional activation domain activity (GFP:mCherry ratio, weighted mean of sorted bins, harmonized to initial dataset scale) (arbitrary fluorescence ratio units); higher = stronger transcriptional activation
- measurement.setup: beta-estradiol 1 µM; induction time 4 h
reported.endpoint: transcriptional activation domain activity
No unit in the answer, please; the number alone is enough.

Task item: # get_value(readout='transcriptional activation domain activity', item= KEEEQKELDRMAREEKKVWGDALRLGRTSWSESVMVWSHVMALRVFVETVLRY )
Reply: 62900

Task item: Try this sequence next: SAAAAAGTGAAAAATAGGKTGETQAAGAKKLKLSEEGKGKEKAAAAAAAEDQK
Reply: 22100

Task item: // same read-out, input: KFFVRHQHKLYYVILSLGRFNLHNLSFTYLFTAPRVRYRWLEIFGICVFFTWY
Reply: 55900

Task item: Input MRDISTLTVCCPLLFFLNLLHFLCFSLCFSLTYFINCLTFLLFLYISFFIKLF
Reply: 42800

Task item: And then AEAGTSKTAAKAEATPVEGTSAPVEGKAQKKEKKEKKPPAEEAGAGKKKGGAA , what is it?
Reply: 16100

Task item: Now give it for MSFKKDEETGVSSFYQDKTSVIQEARVFNETPISPRKCRILLTKVIYLLYSGE too.
Reply: 44100

Task item: Now the same for MIFSNLLVLSLLCSLFLFFYFFFYVLCFFLFAYTLSRSLYITILGFFDLVIVF
Reply: 66200

Task item: Same read-out for ERSILWRAYLRLISHINSIYKIRIAYEWTEDFVIKYLWSAAGYCLISVPVLLT ?
Reply: 54200

Task item: And then MILLQCIPPFFLFSFLYSFVFPSPLPTIYDLSFSVSFFLFLFPWLVEIQLCCC , what is it?
Reply: 52800

Every entry's value here was drawn from the supplement of paper PMC12636428.
